molecular target: cathepsin B (Homo sapiens); construct: made in house; test: Kinetic parameters of ACC substrates with cathepsin B; type: biochemical; conditions: Fig. 5B; pH 5.5, 37 °C; cathepsin B 4–15 nM; triplicate, SD below 15%
Non-standard residues stand in square brackets, D forms with d. *: point of attachment. Phe(F5) = N[C@@H](Cc1c(F)c(F)c(F)c(F)c1F)C(=O)O; ACC = NC(=O)Cc1cc(=O)oc2cc(N*)ccc12; OBn = c1ccc(CO*)cc1
result.type: kcat/KM Cath-B (M⁻¹ s⁻¹)
Express your answer in M⁻¹ s⁻¹, writing the number without its unit.

substance: Ac-H[dK][Phe(F5)]R-{ACC} (SMILES CC(=O)N[C@@H](Cc1c[nH]cn1)C(=O)N[C@H](CCCCN)C(=O)N[C@@H](Cc1c(F)c(F)c(F)c(F)c1F)C(=O)N[C@@H](CCCNC(=N)N)C(=O)Nc1ccc2c(CC(N)=O)cc(=O)oc2c1)
display.unit: M⁻¹ s⁻¹
kcat/KM Cath-B: 175

Pending substance:
Item Ac-H[dV][Phe(F5)]E(OBn)-{ACC} (SMILES CC(=O)N[C@@H](Cc1c[nH]cn1)C(=O)N[C@@H](C(=O)N[C@@H](Cc1c(F)c(F)c(F)c(F)c1F)C(=O)N[C@@H](CCC(=O)OCc1ccccc1)C(=O)Nc1ccc2c(CC(N)=O)cc(=O)oc2c1)C(C)C) has what recorded kcat/KM Cath-B? 941

---

target: cathepsin S (Homo sapiens); construct: made in house; assay: Kinetic parameters of ACC substrates with cathepsin S; format: biochemical; conditions: Fig. 5B; pH 5.5, 37 °C; cathepsin S 5–20 nM; triplicate, SD below 15%
Sequence (P25774 115-331): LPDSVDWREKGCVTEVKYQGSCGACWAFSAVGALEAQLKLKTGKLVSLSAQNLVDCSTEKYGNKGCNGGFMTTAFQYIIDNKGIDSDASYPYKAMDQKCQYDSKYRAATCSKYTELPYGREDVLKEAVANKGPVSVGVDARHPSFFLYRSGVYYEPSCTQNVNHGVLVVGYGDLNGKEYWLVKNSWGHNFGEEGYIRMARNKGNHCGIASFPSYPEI
Non-standard residues stand in square brackets, D forms with d. *: point of attachment. Phe(F5) = N[C@@H](Cc1c(F)c(F)c(F)c(F)c1F)C(=O)O; ACC = NC(=O)Cc1cc(=O)oc2cc(N*)ccc12; hArg = N=C(N)NCCCC[C@H](N)C(=O)O; OBn = c1ccc(CO*)cc1
Entries annotated with measured kcat/KM Cath-S

substance: Ac-H[dV][Phe(F5)]E(OBn)-{ACC} (SMILES CC(=O)N[C@@H](Cc1c[nH]cn1)C(=O)N[C@@H](C(=O)N[C@@H](Cc1c(F)c(F)c(F)c(F)c1F)C(=O)N[C@@H](CCC(=O)OCc1ccccc1)C(=O)Nc1ccc2c(CC(N)=O)cc(=O)oc2c1)C(C)C)
system.under.test: cathepsin S (Homo sapiens)
kcat/KM Cath-S: 1,110 M^-1s^-1
//
substance: Ac-[hArg][dV][Phe(F5)]R-{ACC} (SMILES CC(=O)N[C@@H](CCCCNC(=N)N)C(=O)N[C@@H](C(=O)N[C@@H](Cc1c(F)c(F)c(F)c(F)c1F)C(=O)N[C@@H](CCCNC(=N)N)C(=O)Nc1ccc2c(CC(N)=O)cc(=O)oc2c1)C(C)C)
system.under.test: cathepsin S (Homo sapiens)
kcat/KM Cath-S: < 10 M⁻¹ s⁻¹

Item Ac-H[dL][Phe(F5)]R-{ACC} (SMILES CC(=O)N[C@@H](Cc1c[nH]cn1)C(=O)N[C@H](CC(C)C)C(=O)N[C@@H](Cc1c(F)c(F)c(F)c(F)c1F)C(=O)N[C@@H](CCCNC(=N)N)C(=O)Nc1ccc2c(CC(N)=O)cc(=O)oc2c1) has what recorded kcat/KM Cath-S? < 10 M⁻¹ s⁻¹

Item Ac-H[dV][Phe(F5)]R-{ACC} (SMILES CC(=O)N[C@@H](Cc1c[nH]cn1)C(=O)N[C@@H](C(=O)N[C@@H](Cc1c(F)c(F)c(F)c(F)c1F)C(=O)N[C@@H](CCCNC(=N)N)C(=O)Nc1ccc2c(CC(N)=O)cc(=O)oc2c1)C(C)C) has what recorded kcat/KM Cath-S? < 10 M⁻¹ s⁻¹
